MIC for assorted compounds
Tested on: Streptococcus pyogenes
Assay: Antibacterial activity against Streptococcus pyogenes after 24 hrs by microdilution method
Assay type: functional
Unit µg/mL implied. Number only.

>>> measuredresult("CC[C@H]1OC(=O)/C(C)=C\\[C@H](C)[C@@H](O[C@@H]2O[C@H](C)C[C@H](N(C)C)[C@H]2O)[C@](C)(OC)C[C@@H](C)CN(C(=O)Nc2ccc(Cl)cc2Cl)[C@H](C)[C@@H](O)[C@]1(C)O")
32

Data request: Provide the reported MIC (system: Streptococcus pyogenes) for CC[C@H]1OC(=O)/C(C)=C\[C@H](C)[C@@H](O[C@@H]2O[C@H](C)C[C@H](N(C)C)[C@H]2O)[C@](C)(OC)C[C@@H](C)CN(C(=O)NC(C)C)[C@H](C)[C@@H](O)[C@]1(C)O
Data returned: 16
